assayed-system: Transient receptor potential cation channel subfamily V member 1 (Homo sapiens, UniProt Q8NER1)
Sequence (Q8NER1 whole entry): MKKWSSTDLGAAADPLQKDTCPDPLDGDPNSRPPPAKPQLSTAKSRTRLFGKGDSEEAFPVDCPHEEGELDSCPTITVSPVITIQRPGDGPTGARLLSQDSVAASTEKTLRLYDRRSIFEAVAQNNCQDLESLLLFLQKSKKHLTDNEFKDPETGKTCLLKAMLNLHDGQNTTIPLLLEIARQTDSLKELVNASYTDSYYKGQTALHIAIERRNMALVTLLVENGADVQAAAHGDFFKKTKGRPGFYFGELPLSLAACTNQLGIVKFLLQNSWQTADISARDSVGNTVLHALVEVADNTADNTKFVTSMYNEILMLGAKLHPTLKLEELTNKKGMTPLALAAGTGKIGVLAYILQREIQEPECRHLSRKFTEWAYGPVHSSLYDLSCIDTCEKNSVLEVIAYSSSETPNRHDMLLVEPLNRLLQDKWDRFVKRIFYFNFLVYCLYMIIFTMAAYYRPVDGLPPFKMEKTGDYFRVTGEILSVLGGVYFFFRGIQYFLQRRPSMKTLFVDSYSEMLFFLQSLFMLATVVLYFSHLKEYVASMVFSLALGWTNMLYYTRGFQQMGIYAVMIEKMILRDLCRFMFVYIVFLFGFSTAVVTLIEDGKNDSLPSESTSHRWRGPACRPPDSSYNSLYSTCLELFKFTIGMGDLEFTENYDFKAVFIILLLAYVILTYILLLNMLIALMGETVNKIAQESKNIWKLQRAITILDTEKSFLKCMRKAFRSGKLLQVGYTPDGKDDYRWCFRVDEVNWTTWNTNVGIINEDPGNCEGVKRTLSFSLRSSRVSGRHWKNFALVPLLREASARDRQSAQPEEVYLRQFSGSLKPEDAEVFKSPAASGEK
measurement-description: Antagonist activity at human TRPV1 expressed in CHOK1 cells assessed as inhibition of capsaicin-induced activity by FLIPR assay
Assay type: cell-based, CHO-K1
test-parameters: read-out: Ki
metric-name: Ki (nM)

compound="COc1ccc(CSc2nc(C(F)(F)F)ccc2CNC(=O)C(C)c2ccc(NS(C)(=O)=O)c(F)c2)cc1 (centres undefined)" test_result=2.3

P: CC(C(=O)NCc1ccc(C(F)(F)F)nc1SCc1ccccc1Cl)c1ccc(NS(C)(=O)=O)c(F)c1 (centres undefined)
Q: CCCCCSc1nc(C(F)(F)F)ccc1CNC(=O)C(C)c1ccc(NS(C)(=O)=O)c(F)c1 (centres undefined)
R: CCC1CCC(Sc2nc(C(F)(F)F)ccc2CNC(=O)C(C)c2ccc(NS(C)(=O)=O)c(F)c2)CC1 (centres undefined)
[ask] List these items ordered by Ki, big to small. Could you list the labels in the order requested?
[reply] P, Q, R
